- measured target: TLR7 (Homo sapiens)
- Construct: Human peripheral blood mononuclear cells (PBMCs) consist of lymphocytes, monocytes and dendritic cells that express TLR7, TLR8 and TLR9; endogenous in cells
- Sequence (Q9NYK1 27-1049): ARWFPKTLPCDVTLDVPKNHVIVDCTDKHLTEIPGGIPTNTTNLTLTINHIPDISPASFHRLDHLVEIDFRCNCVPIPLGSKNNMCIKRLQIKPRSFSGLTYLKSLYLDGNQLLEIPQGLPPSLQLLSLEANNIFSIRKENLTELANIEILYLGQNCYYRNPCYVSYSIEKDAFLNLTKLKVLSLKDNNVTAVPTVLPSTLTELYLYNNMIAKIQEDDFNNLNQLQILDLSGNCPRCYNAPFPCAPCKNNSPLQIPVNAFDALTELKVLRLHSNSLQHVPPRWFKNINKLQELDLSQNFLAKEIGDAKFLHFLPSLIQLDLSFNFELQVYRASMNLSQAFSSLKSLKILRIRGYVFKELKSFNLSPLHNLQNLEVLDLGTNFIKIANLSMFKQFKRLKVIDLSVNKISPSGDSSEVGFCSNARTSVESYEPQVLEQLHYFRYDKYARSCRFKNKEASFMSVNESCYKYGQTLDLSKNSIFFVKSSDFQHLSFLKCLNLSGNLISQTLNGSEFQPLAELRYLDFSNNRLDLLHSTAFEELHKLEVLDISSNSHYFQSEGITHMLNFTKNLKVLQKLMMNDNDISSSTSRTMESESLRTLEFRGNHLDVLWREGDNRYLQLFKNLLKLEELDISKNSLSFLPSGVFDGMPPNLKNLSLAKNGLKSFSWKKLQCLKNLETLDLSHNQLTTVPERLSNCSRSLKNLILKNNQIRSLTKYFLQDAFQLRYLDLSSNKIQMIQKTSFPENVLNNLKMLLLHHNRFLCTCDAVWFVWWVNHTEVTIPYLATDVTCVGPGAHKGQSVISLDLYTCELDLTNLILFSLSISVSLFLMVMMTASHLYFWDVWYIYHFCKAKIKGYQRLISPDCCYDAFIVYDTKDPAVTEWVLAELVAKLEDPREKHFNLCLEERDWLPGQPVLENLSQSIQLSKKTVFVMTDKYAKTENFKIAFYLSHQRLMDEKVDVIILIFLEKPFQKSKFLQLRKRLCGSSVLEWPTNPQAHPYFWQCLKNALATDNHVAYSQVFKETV
- method summary: TLR7 human PBMC cell-based assay (antagonist, GS-986 stimulated cytokine release)
- recorded conditions: human PBMCs; TLR7 agonist GS-986 400 nM, 6 hours; cytokines (IL-6 and IFNα) in supernatant; read-out: TLR-7 EC50
pEC50: −log10 of the molar value.
measured property: pEC50

Some solved entries appear below for comparison.
# molecule, pEC50
rows = [
    ("Cc1c(C(=O)N2CCNCC2)sc2c(C(C)C)c(-c3cc(C)c4ncnn4c3)[nH]c12 [Example 240]", 7.68),
    ("Cc1cc(-c2[nH]c3cc(C4CCNC5(CCC5)C4)sc3c2C(C)C)cn2ncnc12 (stereo not drawn) [Example 296]", 8.42),
]

(a) Cc1cc(-c2[nH]c3cc(C(=O)N4C[C@@H]5NCCO[C@@H]5C4)sc3c2C(C)C)cn2ncnc12 [Example 132]
(b) Cc1cc(-c2[nH]c3cc(C(=O)N4CCN[C@H](c5ccccc5)C4)sc3c2C(C)C)cn2ncnc12 [Example 129]
(c) Cc1cc(-c2[nH]c3cc(C(=O)N(C)C4CCNCC4(C)C)sc3c2C(C)C)cn2ncnc12 (stereo not drawn) [Example 92]
Order the items by recorded pEC50; the first position goes to the largest value. Returns: the labels listed in the requested order.
c, b, a

(1) Cc1cc(-c2[nH]c3cc(C4CCC(N5CCC(OC(F)F)C5)CC4)sc3c2C(C)C)cn2ncnc12 (stereo not drawn) [Example 258]
(2) Cc1cc(-c2[nH]c3cc(C(=O)N4CCn5c(nnc5C(F)(F)F)C4)sc3c2C(C)C)cn2ncnc12 [Example 118]
pEC50 comparison. Which is larger, 1 or 2 ? Give the label of your selection.
1
(1: 8.64, 2: 7.72)

(P) Cc1cc(-c2[nH]c3cc(C(=O)N(C)C4CCC(N5CC6(COC6)C5)CC4)sc3c2C(C)C)cn2ncnc12 (stereo not drawn) [Example 253]
(Q) Cc1cc(-c2[nH]c3cc(C4CCC5CNCCC5C4)sc3c2C(C)C)cn2ncnc12 (stereo not drawn) [Example 281]
(R) Cc1cc(-c2[nH]c3cc(C(=O)N4C5CCC4CNC5)sc3c2C(C)C)cc(C)n1 [Example 17]
Arrange items by their pEC50 values in increasing order. Returns: the labels listed in the requested order.
R, P, Q

(1) Cc1cc(-c2[nH]c3cc(C(=O)N4CC5(CNC5)C4)sc3c2C(C)C)cc(C)n1 [Example 24]
(2) Cc1cc(-c2[nH]c3cc(C(=O)N4CCC[C@H](N)C4)sc3c2C(C)C)cc(C)n1 [Example 11]
Param metric = pEC50; output whichever of 1 , 2 has the minimum value. Give the label of your selection.
1
(1: 6.30, 2: 7.54)

* * *

- measured target: TLR8 (Homo sapiens)
- Construct: Human peripheral blood mononuclear cells (PBMCs) consist of lymphocytes, monocytes and dendritic cells that express TLR7, TLR8 and TLR9; endogenous in cells
- method summary: TLR8 human PBMC cell-based assay (antagonist, Compound A stimulated cytokine release)
- recorded conditions: human PBMCs; TLR8 agonist Compound A 800 nM, 6 hours; cytokines (TNFa and IL 12p40) in supernatant; read-out: TLR-8 EC50
- Description: Human peripheral blood mononuclear cells (PBMCs) consist of lymphocytes, monocytes and dendritic cells that express TLR7, TLR8 and TLR9. These cells respond to TLR7, TLR8 and TLR9 ligand stimulation and produce cytokines and chemokines in vitro and in vivo. Human PBMCs are therefore suitable to be used in a cell-based assay to assess the in vitro potency of a TLR 7, 8, and/or 9 antagonist. […]
measured property: EC50 (nM)

Some solved entries appear below for comparison.
# compound, measured target, EC50 / nM
records = [
    ("Cc1cc(-c2[nH]c3cc(C4CCC(C(=O)N5CCNCC5)CC4)sc3c2C(C)C)cn2ncnc12 (stereo not shown)", "TLR8 (Homo sapiens)", 11.2),
    ("Cc1cc(-c2[nH]c3cc(C4CCCNC4)sc3c2C(C)C)cn2ncnc12 (stereo not shown)", "TLR8 (Homo sapiens)", 5.7),
    ("Cc1c(-c2[nH]c3cc(-c4nc5ccc(N6CCNCC6)cc5[nH]4)sc3c2C(C)C)cn2ncnc2c1C", "TLR8 (Homo sapiens)", 25.4),
    ("Cc1cc(-c2[nH]c3cc(C(=O)N(C)[C@@H]4CCNC[C@@H]4F)sc3c2C(C)C)cn2ncnc12", "TLR8 (Homo sapiens)", 9.1),
    ("Cc1cc(-c2[nH]c3cc(C4CCN(C(=O)C5(N)CCC5)CC4)sc3c2C(C)C)cn2ncnc12", "TLR8 (Homo sapiens)", 79.7),
]

(1) Cc1cc(-c2[nH]c3cc(C(=O)N(C)[C@H]4CNC[C@@H]4F)sc3c2C(C)C)cn2ncnc12
(2) Cc1cc(-c2[nH]c3cc(C(=O)N4CCC(N)CC4)sc3c2C(C)C)cc(C)n1
Param metric = EC50; output whichever of 1 , 2 has the minimum value. Give the label of your selection.
1
(1: 21.1 nM, 2: 31.7 nM)

(A) CN[C@@H]1CCN(C(=O)c2cc3[nH]c(-c4cc(C)c5ncnn5c4)c(C(C)C)c3s2)C1
(B) Cc1cc(-c2[nH]c3cc(C(=O)N4C[C@@H]5NCCO[C@@H]5C4)sc3c2C(C)C)cn2ncnc12
(C) Cc1cc(-c2[nH]c3cc(C(=O)N4CC5CCC(C4)N5)sc3c2C(C)C)cc(C)n1
(D) Cc1cc(-c2[nH]c3cc(C(=O)N4CC[C@@H](F)[C@@H](N)C4)sc3c2C(C)C)cc(C)n1
Arrange items by their EC50 values in increasing order. Returns: the labels listed in the requested order.
A, C, B, D
(A: 1.1 nM, C: 15.1 nM, B: 26.9 nM, D: 123 nM)

(1) Cc1cc(-c2[nH]c3cc(C(=O)N(C)C4CCN(CC(F)F)CC4)sc3c2C(C)C)cn2ncnc12
(2) Cc1cc(-c2[nH]c3cc(C(=O)N4C[C@@H](N)CC[C@H]4C)sc3c2C(C)C)cn2ncnc12
EC50 comparison. Which is larger, 1 or 2 ? Give the label of your selection.
1
(1: 94.1 nM, 2: 25.8 nM)

* * *

- measured target: TLR8 (Homo sapiens, UniProt Q9NR97)
- Construct: Human peripheral blood mononuclear cells (PBMCs) consist of lymphocytes, monocytes and dendritic cells that express TLR7, TLR8 and TLR9; endogenous in cells
- Sequence (Q9NR97 27-1041): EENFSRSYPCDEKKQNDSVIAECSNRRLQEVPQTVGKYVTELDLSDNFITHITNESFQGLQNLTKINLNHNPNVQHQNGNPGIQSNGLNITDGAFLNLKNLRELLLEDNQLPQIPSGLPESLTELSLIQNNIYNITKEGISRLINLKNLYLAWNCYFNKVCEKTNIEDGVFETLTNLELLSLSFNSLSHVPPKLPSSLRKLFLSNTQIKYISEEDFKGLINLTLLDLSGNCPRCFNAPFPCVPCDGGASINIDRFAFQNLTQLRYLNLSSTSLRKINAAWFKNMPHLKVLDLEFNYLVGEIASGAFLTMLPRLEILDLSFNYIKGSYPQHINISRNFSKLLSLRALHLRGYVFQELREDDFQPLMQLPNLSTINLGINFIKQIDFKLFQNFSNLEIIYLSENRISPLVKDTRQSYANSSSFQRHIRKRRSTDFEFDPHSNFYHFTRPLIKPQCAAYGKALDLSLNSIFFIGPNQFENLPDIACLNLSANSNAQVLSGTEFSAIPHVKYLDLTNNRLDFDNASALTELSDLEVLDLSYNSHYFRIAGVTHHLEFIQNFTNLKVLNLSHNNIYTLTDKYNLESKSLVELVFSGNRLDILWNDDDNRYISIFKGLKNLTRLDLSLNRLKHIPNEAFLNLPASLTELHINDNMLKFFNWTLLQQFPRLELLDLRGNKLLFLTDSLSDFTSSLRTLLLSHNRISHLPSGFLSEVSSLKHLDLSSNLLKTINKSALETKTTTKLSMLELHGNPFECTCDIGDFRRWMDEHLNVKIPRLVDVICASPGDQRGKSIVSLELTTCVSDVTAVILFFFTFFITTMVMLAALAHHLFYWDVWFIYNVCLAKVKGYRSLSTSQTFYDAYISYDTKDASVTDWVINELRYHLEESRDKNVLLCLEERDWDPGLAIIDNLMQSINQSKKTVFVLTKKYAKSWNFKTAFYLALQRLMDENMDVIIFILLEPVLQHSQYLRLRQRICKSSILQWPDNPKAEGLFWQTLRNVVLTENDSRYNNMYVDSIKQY
- method summary: TLR8 human PBMC cell-based assay (antagonist, Compound A stimulated cytokine release)
- recorded conditions: human PBMCs; TLR8 agonist Compound A 800 nM, 6 hours; cytokines (TNFa and IL 12p40) in supernatant; read-out: TLR-8 EC50
- Description: Human peripheral blood mononuclear cells (PBMCs) consist of lymphocytes, monocytes and dendritic cells that express TLR7, TLR8 and TLR9. These cells respond to TLR7, TLR8 and TLR9 ligand stimulation and produce cytokines and chemokines in vitro and in vivo. Human PBMCs are therefore suitable to be used in a cell-based assay to assess the in vitro potency of a TLR 7, 8, and/or 9 antagonist. […]
measured property: EC50 (nM)

# compound, measurement unit, EC50
data = [
    ("Cc1cc(-c2[nH]c3cc(C4CC5(CCNCC5)C4)sc3c2C(C)C)cn2ncnc12 [Example 308]", "nM", 3.46),
    ("Cc1cc(-c2[nH]c3cc(C4CCN(C(=O)[C@@H]5CCCN5C)CC4)sc3c2C(C)C)cn2ncnc12 [Example 200]", "nM", 10),
    ("Cc1cc(-c2[nH]c3cc(-c4cccc(N5CCNCC5)c4)sc3c2C(C)C)cn2ncnc12 [Example 234]", "nM", 8.4),
    ("Cc1c(-c2[nH]c3cc(CN4CCC(O)(C(F)(F)F)CC4)sc3c2C(C)C)cn2ncnc2c1C [Example 267]", "nM", 4.8),
    ("Cc1cc(-c2[nH]c3cc(C4CCC5CNCCC5C4)sc3c2C(C)C)cn2ncnc12 (stereo not shown) [Example 281]", "nM", 4.48),
]

(A) Cc1cc(-c2[nH]c3cc(C(=O)N4CCN(C)CC4)sc3c2C(C)C)cn2ncnc12 [Example 43]
(B) Cc1cc(-c2[nH]c3cc(-c4ccc5c(c4)CC(N)C5)sc3c2C(C)C)cn2ncnc12 (stereo not shown) [Example 227]
EC50 comparison. Which is larger, A or B ? Give the label of your selection.
A
(A: 2.6 nM, B: 0.7 nM)

(A) Cc1cc(-c2[nH]c3cc(C4CCN(C(=O)C5CCCN(C)C5)CC4)sc3c2C(C)C)cn2ncnc12 (stereo not shown) [Example 203]
(B) Cc1cc(-c2[nH]c3cc(C(=O)N4C5CNCC4C5)sc3c2C(C)C)cc(C)n1 [Example 19]
Param metric = EC50; output whichever of A , B has the minimum value. Give the label of your selection.
A

Origin of the recorded values: patent US20240217990A1
